Molecular target: P2X7 receptor (Homo sapiens, UniProt Q99572)
Sequence (Q99572 whole entry): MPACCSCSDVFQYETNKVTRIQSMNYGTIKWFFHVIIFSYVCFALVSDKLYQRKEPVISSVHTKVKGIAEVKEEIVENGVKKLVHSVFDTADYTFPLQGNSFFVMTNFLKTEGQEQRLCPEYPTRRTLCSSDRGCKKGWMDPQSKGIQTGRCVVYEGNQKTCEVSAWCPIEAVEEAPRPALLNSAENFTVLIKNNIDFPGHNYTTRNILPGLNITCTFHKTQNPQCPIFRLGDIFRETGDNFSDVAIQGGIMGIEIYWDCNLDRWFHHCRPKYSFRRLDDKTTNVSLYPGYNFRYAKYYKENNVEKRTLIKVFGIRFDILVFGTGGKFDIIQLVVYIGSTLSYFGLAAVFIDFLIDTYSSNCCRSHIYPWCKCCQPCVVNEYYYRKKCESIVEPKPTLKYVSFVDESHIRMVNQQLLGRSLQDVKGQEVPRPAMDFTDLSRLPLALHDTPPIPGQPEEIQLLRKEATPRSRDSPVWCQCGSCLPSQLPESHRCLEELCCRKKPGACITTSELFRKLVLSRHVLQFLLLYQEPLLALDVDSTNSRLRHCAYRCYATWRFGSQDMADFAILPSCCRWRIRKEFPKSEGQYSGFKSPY
Test: YO-PRO-1 uptake assay
Type: cell-based
Set-up: expressed in transfected cells
Conditions: HEK-293 cells stably transfected with P2X7 receptor; Bz-ATP EC80 (30 μM); Low Divalent Cation Assay Buffer
Description: YO-PRO®-1 is a fluorescent DNA-binding dye with a MW of 374 Da (Molecular Probes®, cat. Y3603). This method is based upon the presumed ability of YO-PRO®-1 to enter through the dilated or “large pore form” of P2X7 receptor and to bind to intracellular DNA whereupon it increases many fold its fluorescence intensity. […] The aim of this assay was to validate the interaction of antagonists with P2X7 receptor using an alternative readout to Ca2+-sensitive fluorescent dyes. […]
Please use class 1 for IC50 under 200 nM and class 0 for everything else, ties included.

IN: Answer whether the compound O=c1onc(Cc2c(F)cccc2Cl)n1CC1CCCCC1(F)F (centres unmarked) has IC50 strictly less than 200 nM
OUT: class 1

IN: Answer whether the compound O=c1snc(Cc2c(F)cccc2Cl)n1CC1CCCCC1 has IC50 strictly less than 200 nM
OUT: class 1

IN: Answer whether the compound O=c1onc(Cc2cccc(Cl)c2Cl)n1CC1CCCCC1 has IC50 strictly less than 200 nM
OUT: class 0

IN: Answer whether the compound Cc1cc(F)ccc1Cn1c(Cc2c(F)cccc2Cl)noc1=O has IC50 strictly less than 200 nM
OUT: class 1

IN: Answer whether the compound CC1(C)CCC(Cn2c(Cc3c(F)cccc3Cl)noc2=O)CC1 has IC50 strictly less than 200 nM
OUT: class 1

IN: Answer whether the compound Cc1noc(C)c1Cc1noc(=O)n1CC1CCCCC1 has IC50 strictly less than 200 nM
OUT: class 1

IN: Answer whether the compound O=c1onc(Cc2c(F)cccc2Cl)n1Cc1ccc(F)cc1F has IC50 strictly less than 200 nM
OUT: class 0

IN: Answer whether the compound O=c1onc(Cc2c(F)cccc2Cl)n1Cc1ccc(Cl)cc1 has IC50 strictly less than 200 nM
OUT: class 0

IN: Answer whether the compound O=c1onc(CC2CCC(F)(F)CC2)n1Cc1c(F)cccc1Cl has IC50 strictly less than 200 nM
OUT: class 1

IN: Answer whether the compound O=c1onc(Cc2c(F)cccc2Cl)n1Cc1ccc(F)cc1 has IC50 strictly less than 200 nM
OUT: class 1
